Values compiled from patent US6908930B2.

Target: EGFR (Homo sapiens)
Construct: A431 […] cell lysate is stored at −80° C; host or cells: A431 cell lysate
Sequence (P00533 25-1210): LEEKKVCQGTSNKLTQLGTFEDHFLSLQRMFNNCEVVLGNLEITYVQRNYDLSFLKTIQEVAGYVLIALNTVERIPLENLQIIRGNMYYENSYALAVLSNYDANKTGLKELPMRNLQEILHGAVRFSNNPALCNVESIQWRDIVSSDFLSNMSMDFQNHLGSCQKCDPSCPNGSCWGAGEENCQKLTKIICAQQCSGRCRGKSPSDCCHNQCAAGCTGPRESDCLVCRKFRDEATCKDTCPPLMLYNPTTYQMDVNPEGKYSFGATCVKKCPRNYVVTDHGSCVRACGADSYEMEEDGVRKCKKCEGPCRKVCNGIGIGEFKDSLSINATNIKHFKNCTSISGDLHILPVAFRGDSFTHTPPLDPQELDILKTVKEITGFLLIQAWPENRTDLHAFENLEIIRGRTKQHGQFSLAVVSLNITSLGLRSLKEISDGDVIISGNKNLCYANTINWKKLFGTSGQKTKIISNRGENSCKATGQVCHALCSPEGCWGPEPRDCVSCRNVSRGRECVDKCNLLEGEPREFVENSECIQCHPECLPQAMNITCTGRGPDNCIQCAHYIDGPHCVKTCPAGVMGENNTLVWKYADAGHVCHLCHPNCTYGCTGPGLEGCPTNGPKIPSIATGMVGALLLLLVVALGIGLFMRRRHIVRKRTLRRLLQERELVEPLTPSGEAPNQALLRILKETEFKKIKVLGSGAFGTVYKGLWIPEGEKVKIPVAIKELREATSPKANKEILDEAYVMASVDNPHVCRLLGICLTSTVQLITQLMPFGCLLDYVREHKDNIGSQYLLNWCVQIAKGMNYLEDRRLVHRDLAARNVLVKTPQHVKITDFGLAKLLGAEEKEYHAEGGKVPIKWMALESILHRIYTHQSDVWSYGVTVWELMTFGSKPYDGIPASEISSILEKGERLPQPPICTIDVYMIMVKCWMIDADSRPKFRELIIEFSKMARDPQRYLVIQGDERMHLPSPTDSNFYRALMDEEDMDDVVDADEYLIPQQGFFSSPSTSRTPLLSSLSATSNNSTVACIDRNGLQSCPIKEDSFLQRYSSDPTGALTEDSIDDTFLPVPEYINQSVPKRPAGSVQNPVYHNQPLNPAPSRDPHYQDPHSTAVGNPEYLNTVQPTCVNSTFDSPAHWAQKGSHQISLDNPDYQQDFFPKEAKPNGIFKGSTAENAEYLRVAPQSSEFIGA
Assay: Assay for modulation of EGFR activity (ELISA)
Type: biochemical
Details: read-out: bio EGFR IC50
Counter-ions that a name gives are not always drawn.
quantity kind: IC50 (nM)

* Cc1[nH]c(C=C2C(=O)Nc3ncnc(Nc4ccc(F)c(Cl)c4)c32)c(C)c1CCCN1CCOCC1 [Formula 7, HYDROCHLORIDE] | 160

1 = CCN(CC)CCNC(=O)c1c(C)[nH]c(/C=C2\C(=O)Nc3ncnc(Nc4ccc(F)c(Cl)c4)c32)c1C [Formula 28]
2 = Cc1nc[nH]c1C=C1C(=O)Nc2ncnc(Nc3ccc(F)c(Cl)c3)c21 [Formula 8]
3 = Cc1cc(C(=O)N2CCN(C)CC2)[nH]c1/C=C1\C(=O)N(C)c2ncnc(Nc3ccc(F)c(Cl)c3)c21 [Formula 36]
# input Give the ascending ranking of the items by reported IC50. Give the labels in the order requested.
# output 2, 1, 3
(2: 60 nM, 1: 210 nM, 3: 17400 nM)
